experiment: qHTS of pediatric cancer cell lines to identify multiple opportunities for drug repurposing: Confirmatory screen for control Hh wild type fibroblast cells (AID 1347121); conditions: viability qHTS; series mostly up to 45.9 µM; further: nearly all actives have a fitted effect of over 70% in size
Records with an inconclusive call do not appear. The source made the active and inactive calls. The call rests on the fitted dose curve; in most records, active means well fitted cell-killing curve with a large enough effect; inconclusive means small, poorly fitted or top-dose-only effect, or effect the other way; inactive means flat fitted curve, though single readings scatter.
Valid outcomes are listed here; reply with one: active, inactive

Field: outcome | Entry: S=P(N1CC1)(N1CC1)N1CC1
inactive

# fetch the recorded call for O=C(NCC1CN(c2ccc(N3CCOCC3=O)cc2)C(=O)O1)c1ccc(Cl)s1 (stereo not given) here
inactive

What did this assay record as the result for Cc1cccc(N(C)C(=S)Oc2ccc3ccccc3c2)c1 ?
inactive

Hi, sorry to bother you, what did the test record for CNNCc1ccc(C(=O)NC(C)C)cc1 ?
inactive

# fetch the recorded call for CS(=O)(=O)c1ccc([C@@H](O)[C@@H](CO)NC(=O)C(Cl)Cl)cc1 here
inactive

Just curious, what result did CC(C)NCC(O)c1ccc(NS(C)(=O)=O)cc1 (stereo not given) get here?
inactive

// return assay outcome for Nc1nc(F)nc2c1ncn2[C@@H]1O[C@H](CO)[C@@H](O)[C@@H]1O
inactive

Assay result, entry NC(=O)c1cccnc1 — outcome?
inactive

Look up the recorded call for CCC(=O)O[C@]1(C(=O)SCF)[C@H](C)C[C@H]2[C@@H]3C[C@H](F)C4=CC(=O)C=C[C@]4(C)[C@@]3(F)[C@@H](O)C[C@@]21C in this test.
inactive

What classification did COc1nc(N)nc2c1ncn2[C@@H]1O[C@H](CO)[C@@H](O)[C@@H]1O end up with in this test?
inactive

Write down the call the test reported for this compound. Item: CNCC[C@H](Oc1cccc2ccccc12)c1cccs1
inactive

Hi, sorry to bother you, what did the test record for CN(C)c1ccc(C(=C2C=CC(=[N+](C)C)C=C2)c2ccc(N(C)C)cc2)cc1 ?
active

In this assay, the call recorded for CC(C(=O)O)c1ccc2c(c1)CC(=O)c1ccccc1S2 (stereo not given) was what?
inactive

Lab log entry: Nc1nc(N)c2nc(CNc3ccc(C(=O)NC(CCC(=O)O)C(=O)O)cc3)cnc2n1 (stereo not given) — outcome as called in the assay?
inactive

So what was the verdict on COC(=O)Nc1nc2ccc(C(=O)c3ccccc3)cc2[nH]1 in this test?
inactive

Given CCC(=O)O[C@]1(C(=O)CCl)[C@@H](C)C[C@H]2[C@@H]3CCC4=CC(=O)C=C[C@]4(C)[C@@]3(F)[C@@H](O)C[C@@]21C , state the outcome it received in this test.
inactive

What is the recorded call for this compound in the test? CC(C)C[C@H](NC(=O)[C@H](CCc1ccccc1)NC(=O)CN1CCOCC1)C(=O)N[C@@H](Cc1ccccc1)C(=O)N[C@@H](CC(C)C)C(=O)[C@@]1(C)CO1
active

Returns: the outcome recorded for CN1CCCC(n2nc(Cc3ccc(Cl)cc3)c3ccccc3c2=O)CC1 (stereo not given) in this assay.
inactive

For COc1cc([C@@H]2c3cc4c(cc3[C@H](O)[C@H]3COC(=O)[C@H]23)OCO4)cc(OC)c1OC , what call appears in the results of this test?
inactive

Recorded call for CC(C)(C#N)c1cc(Cn2cncn2)cc(C(C)(C)C#N)c1 ?
inactive

###

test: Quantitative High-Throughput drug screen in 47 multiple myeloma cell lines against the NCATS MIPE library collection: KMS12BM_JCRB cell viability assay (AID 1918971); settings: KMS12BM myeloma viability, CellTiter-Glo ATP, 48 h; series mostly up to 45.8 µM; further: nearly all actives have a fitted effect of over 35% in size; further: potency means the concentration at half of the fitted maximal effect
Records with an inconclusive call do not appear. The source made the active and inactive calls. Calls come from the whole dose curve; as a rule, active = well fitted cell-killing curve with a large enough effect; inconclusive = small, poorly fitted or top-dose-only effect, or effect the other way; inactive = no such curve, though single readings can be large or run the other way.
measuredQuantity: Potency

Worked examples, 5 compounds total:
[[record]]
compound = "CC(C)OC(=O)OCOP(=O)(CO[C@H](C)Cn1cnc2c(N)ncnc21)OCOC(=O)OC(C)C"
measuredquantity = "Potency"
result = "7.43 µM (active)"

[[record]]
compound = "COc1cc2nc(N3CCCN(C)CC3)nc(NC3CCN(Cc4ccccc4)CC3)c2cc1OC"
measuredquantity = "Potency"
result = "14.8 µM (active)"

[[record]]
compound = "CC[C@H](NC(C)C)[C@H](O)c1ccc(O)c2[nH]c(=O)ccc12"
measuredquantity = "Potency"
result = "0.0235 µM (active)"

[[record]]
compound = "CNC1CCCN(c2c(F)cc3c(=O)c(C(=O)O)cn(C4CC4)c3c2OC)C1 (configuration not stated)"
measuredquantity = "Potency"
result = "inactive"

[[record]]
compound = "Nc1nc(N)nc(-c2cc(Cl)ccc2Cl)n1"
measuredquantity = "Potency"
result = "inactive"


Could you please provide reported Potency for COc1ncnc(NS(=O)(=O)c2ccc(N)cc2)c1OC ? Thanks!
inactive

For the compound C[C@@H]1CN(c2c(F)c(N)c3c(=O)c(C(=O)O)cn(C4CC4)c3c2F)C[C@H](C)N1 , give its reported Potency.
inactive

Please report the measured Potency for O=C(NCC1CN(c2ccc(N3CCOCC3=O)cc2)C(=O)O1)c1ccc(Cl)s1 (configuration not stated)
inactive

Provide only the value of recorded Potency for CCOC(=O)c1ccc(OC(=O)CCCCCN=C(N)N)cc1
inactive

Given the compound CCC(=O)O[C@]1(C(=O)CCl)[C@@H](C)C[C@H]2[C@@H]3CCC4=CC(=O)C=C[C@]4(C)[C@@]3(F)[C@@H](O)C[C@@]21C , write its reported Potency.
14.8 µM (active)

Dear colleague, please send me the reported Potency for Cc1ccnc2c1NC(=O)c1cccnc1N2C1CC1 when you can.
inactive

Return the recorded Potency value; entry: CCCc1cc(C(N)=S)ccn1
inactive

Origin of the recorded values: PubChem BioAssay (NCATS)
